Quick reference for TGI among some molecules
- Test system: UACC-257 melanoma
- protocol.details: NCI tumour cell line growth inhibition, 48 h

// known answers, use as guide
CCCCCCCCCCCCOC1C(C(COC2OC(C(O)CO)C3OC(C)(C)OC23)OC(=O)Nc2ccccc2)OC2OC(C)(C)OC21 (stereo not drawn) :: 25.2 µM
NCCCCNOCCCN :: > 100 µM
CNCc1cccc2c1OCCOCCOCCNS(=O)(=O)c1ccc(cc1)-c1cnc(N)c(n1)C(=O)N2 :: 4.68 µM
CCCCC(C(=O)C(=O)Nc1ccccc1CC)C(=O)C(C)C (stereo not drawn) :: > 100 µM
Cc1csc(=Nc2ccccc2)n1CCC(O)(P(=O)(O)O)P(=O)(O)O :: > 100 µM

Record `CC(C)(C)OC(=O)/N=C/c1c(O)c2ccccc2oc1=O` , field TGI: > 100 µM

Record `COc1cc2c(cc1OCCN1CCN(CCN3C(=O)c4cccc5cccc(c45)C3=O)CC1)N=C[C@@H]1CCCN1C2=O` , field TGI: 48.3 µM

Record `C=C1CC[C@@H]2[C@](C)(COC(=O)CCC(=O)OC)CCC[C@@]2(C)[C@@H]1CCC1=CC(=O)OC1` , field TGI: > 100 µM

###

- System: MCF7 breast
- protocol.details: NCI tumour cell line growth inhibition, 48 h
measured.metric: TGI

// known answers, use as guide
O=C1c2ccccc2-c2c1c1c(O)cccc1n2Cc1ccccc1 :: 30.8 µM
NC1=C(c2nc(-c3ccccc3)cs2)C(c2ccco2)c2c(c3ccccc3oc2=O)O1 (stereo not drawn) :: > 100 µM
O[C@@H]1[C@H](OC2c3ccccc3-c3ccccc32)[C@H](OCc2ccccc2)[C@@H]2OC[C@H]1O2 :: > 100 µM
COC(=O)C1(CCCCl)CCCN1C(=O)OC(C)(C)C (stereo not drawn) :: > 100 µM
COC(=O)C1CC2CC1C1C2SC(F)(F)C1(F)F (stereo not drawn) :: > 100 µM

Hey, MCF7 breast data for `COc1cc2c(cc1OCCCOc1cc3c(cc1OC)C(=O)N1CCC[C@H]1C(=O)N3)N=C[C@@H]1CCCN1C2=O` : TGI came out at 27.3 µM

Hey, MCF7 breast data for `Nc1ccc2c(=S)c3ccccc3[nH]c2c1` : TGI came out at > 100 µM

Hey, MCF7 breast data for c1ccc(C(NC2=NCCO2)C2CC2)cc1 (stereo not drawn) : TGI came out at > 100 µM

###

- Tested on: OVCAR-8 ovarian
- protocol.details: NCI tumour cell line growth inhibition, 48 h
measured.metric: TGI

// known answers, use as guide
COc1ccc(OC)c(/C=C2/C(=O)N=C(NC(C)=O)N2C)c1 :: > 100 µM
C=CCN(c1cc(O)c2c(c(C)cn2S(=O)(=O)c2ccccc2)c1[N+](=O)[O-])S(C)(=O)=O :: > 100 µM

Record `CC1=N/C(=C\c2ccc(C)cc2)C(=O)O1` , field TGI: > 100 µM

###

- Test system: M14 melanoma
- protocol.details: NCI tumour cell line growth inhibition, 48 h
Quick reference for GI50 among some compounds

// known answers, use as guide
CN(C)c1ccc(/C=N/N=C(\C#N)[S][Sn]([Cl])([c]2ccccc2)[c]2ccccc2)cc1 :: 1.72 µM
O=C(O)CSc1cc(NS(=O)(=O)c2ccc(Br)cc2)c2ccccc2c1O :: 15.1 µM

Shift focus to the following entry.
Record `COc1ccc(-c2c(Nc3ccccn3)nc3c(C4=CCCCC4)c(-c4ccccc4)[nH]n3c2=O)cc1` , field GI50: 1.23 µM

###

Quick reference for TGI among some compounds
- Test system: LOX IMVI melanoma
- protocol.details: NCI tumour cell line growth inhibition, 48 h

// known answers, use as guide
CN(CC(=O)Nc1ccccc1C(=O)O)c1ccccc1 :: > 100 µM
O=C(CCN1CCOCC1)Nc1ccc(Cn2nnc3c2C(=O)c2nnn(Cc4ccc(NC(=O)CCN5CCOCC5)cc4)c2C3=O)cc1 :: 3.37 µM
CC(C)(C)C1CC[C@H]2c3c([nH]c4ccccc34)[C@H]3C(=O)N(c4ccc(F)cc4)C(=O)[C@H]3[C@H]2C1 (stereo partly drawn) :: 35.2 µM
O=C1CSC(c2cc3cc(Br)ccc3nc2Cl)N1c1ccc(Cl)cc1 (stereo not drawn) :: 33.7 µM

Record NC1=C(c2nc(-c3ccccc3)cs2)C(c2ccco2)c2c(c3ccccc3oc2=O)O1 (stereo not drawn) , field TGI: > 100 µM

Record `CCCCCCCCCCN=C(N)c1ccc(N2CCN(c3ccc(C(N)=NCCCCCCCCCC)cc3)CC2)cc1` , field TGI: > 50 µM

Record Cc1ccc2c(c1C)CC1(Cc3ccc(C)c(C)c3C1=O)C2=O (stereo not drawn) , field TGI: > 100 µM

Record `CCOC(=O)c1c(C)n(-c2ccc(C)cc2)c(=O)c2ccccc2c(=O)c2c(=O)ccc(=O)c1=2` , field TGI: 36.4 µM

###

- Test system: NCI/ADR-RES ovarian
- protocol.details: NCI tumour cell line growth inhibition, 48 h
measured.metric: TGI

Record `CN(/N=C/c1ccccn1)C1=NCCN1` , field TGI: > 100 µM

Record `CCCCCCCCCCCCCCCCOP(=O)([O-])OCC[N+](C)(C)C1CC(C)(C)N(O)C(C)(C)C1` , field TGI: > 100 µM

Record `COc1ccc(-n2c(=O)c3ccccc3n(Cc3ccc(C(=O)NO)cc3)c2=O)cc1` , field TGI: > 100 µM

Record `CCCCCCCCCCN=C(N)c1ccc(N2CCN(c3ccc(C(N)=NCCCCCCCCCC)cc3)CC2)cc1` , field TGI: > 50 µM

Record `O=C1/C(=C/c2ccc(Br)s2)NC(=S)N1CN1CCCCC1` , field TGI: 98.2 µM

Record `CN(C)[C@@H]1C(=O)C(C(=O)NCc2nc3[nH]cnc(=S)c3[nH]2)=C(O)[C@@]2(O)C(=O)C3=C(O)c4c(O)cccc4[C@@](C)(O)[C@H]3C[C@@H]12` , field TGI: > 100 µM

Record `NCCc1ccc(S(=O)(=O)O)cc1[N+](=O)[O-]` , field TGI: > 100 µM

Record CC(C)c1ccc2c(c1)CCC1C2CCCC1(C)NCc1ccccc1 (configuration not stated) , field TGI: 19.9 µM

Record `S=c1[nH]nc(Cn2c3ccc(Br)cc3c3nc4ccccc4nc32)o1` , field TGI: > 100 µM

Record `COc1cc2c(cc1OCCCOc1cc3c(cc1OC)C(=O)N1CCC[C@H]1C(=O)N3)N=C[C@@H]1CCCN1C2=O` , field TGI: > 100 µM

Record COC(=O)C(=O)C(C(=O)C(=O)Nc1cccc(OC)c1)c1nc2ccc(Cl)cc2[nH]c1=O (configuration not stated) , field TGI: > 100 µM

###

- System: MCF7 breast
- protocol.details: NCI tumour cell line growth inhibition, 48 h
measured.metric: TGI

// known answers, use as guide
CCN(CC)/[N+]([O-])=N/OS(=O)(=O)N(C)C :: > 100 µM
Cc1nc2ccc(S(=O)(=O)O)cc2c(=O)n1-c1ccc(C(=O)NN2C(=O)C(Cl)C2c2cccs2)cc1 (stereo unspecified) :: > 100 µM
Cc1csc(=Nc2ccccc2)n1CCC(O)(P(=O)(O)O)P(=O)(O)O :: > 100 µM
CC(=O)Nc1nc2c(=O)c3ccccc3sc2s1 :: > 100 µM
O=c1oc2ccccc2c(-c2ccc(O)cc2)c1Oc1ccccc1 :: > 100 µM

Shift focus to the following entry.
Record `COC(=O)c1sc(=S)sc1SCc1cccc(CSc2sc(=S)sc2C(=O)OC)c1` , field TGI: > 100 µM

###

- System: SF-539 CNS
- protocol.details: NCI tumour cell line growth inhibition, 48 h
Quick reference for TGI among some compounds

// known answers, use as guide
O=C(c1c(F)c(F)c(F)c(F)c1F)n1c(=S)n(C(=O)c2c(F)c(F)c(F)c(F)c2F)c2ccccc21 :: > 100 µM
CN(C)c1ccc(/C=C2\CCc3ccccc3C2=O)cc1Br :: > 100 µM

Record `COc1cc(/C=C/C(=O)c2nc3cc(F)ccc3nc2C)cc(OC)c1OC` , field TGI: > 100 µM

Record `S=c1[nH]nc(Cn2c3ccc(Br)cc3c3nc4ccccc4nc32)o1` , field TGI: > 80.7 µM

Record `CCOC(=O)c1cn(-c2ccc([N+](=O)[O-])cc2)c(=S)n2c1nc1ccccc12` , field TGI: > 100 µM

###

- Tested on: EKVX NSCLC
- protocol.details: NCI tumour cell line growth inhibition, 48 h
measured.metric: TGI

COc1cc2c3c(n(CCCN)c(=O)c2cc1OC)-c1ccc(N)cc1C3=O :: > 30.9 µM
Nc1ccccc1C(=O)/C=C/c1ccccc1O :: > 100 µM

Shift focus to the following entry.
Hey, EKVX NSCLC data for `C#CCN(C(=O)C(F)(F)F)C(/C=C\C(=O)OC)(C(=O)OCC)C(=O)OCC` : TGI came out at > 100 µM

The reported numbers originate from PubChem BioAssay (NCI).
